target: PDE10A (Homo sapiens, UniProt Q9Y233); construct: made in house; host or cells: SF21 insect cells (baculovirus); test: Inhibition of recombinant PDE10A (baculovirus/SF21 system), [3H]-cAMP SPA; format: biochemical; conditions: recombinant PDE10A1, cytosolic; 0.1 μM [3H]-cAMP, 37° C., 30 minutes; read-out: PDE10A IC50
Sequence (Q9Y233 1-779 isoform Q9Y233-1): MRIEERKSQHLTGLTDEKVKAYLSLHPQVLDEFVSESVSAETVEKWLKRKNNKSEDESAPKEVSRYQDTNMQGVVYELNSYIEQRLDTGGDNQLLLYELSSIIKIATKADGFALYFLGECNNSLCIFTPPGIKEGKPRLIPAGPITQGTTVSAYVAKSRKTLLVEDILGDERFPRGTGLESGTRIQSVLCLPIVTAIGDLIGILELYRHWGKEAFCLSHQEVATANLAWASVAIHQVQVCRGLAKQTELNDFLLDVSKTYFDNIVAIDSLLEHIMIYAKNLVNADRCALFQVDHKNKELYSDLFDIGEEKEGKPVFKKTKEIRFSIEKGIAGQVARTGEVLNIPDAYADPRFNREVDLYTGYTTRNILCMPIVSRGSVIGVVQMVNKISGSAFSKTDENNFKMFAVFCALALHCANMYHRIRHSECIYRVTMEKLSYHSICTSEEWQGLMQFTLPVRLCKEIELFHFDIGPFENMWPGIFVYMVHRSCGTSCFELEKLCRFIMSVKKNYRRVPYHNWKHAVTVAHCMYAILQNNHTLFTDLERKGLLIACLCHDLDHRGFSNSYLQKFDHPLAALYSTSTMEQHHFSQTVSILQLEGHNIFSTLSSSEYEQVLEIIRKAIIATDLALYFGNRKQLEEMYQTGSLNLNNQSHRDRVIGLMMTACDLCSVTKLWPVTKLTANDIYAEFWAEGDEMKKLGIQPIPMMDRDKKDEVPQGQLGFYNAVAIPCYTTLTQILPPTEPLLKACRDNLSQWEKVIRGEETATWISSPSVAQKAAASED
pIC50: −log10 of the molar value.
propertyMeasured: pIC50

COc1ccc2c(c1)nnc1c(C)ncn12 [Example 35]	< 5.30

# input molecule: Cc1nc(-c2ccnn2C)n2c1nnc1ccc(F)cc12 [Example 15] ; wanted: its pIC50 < 5.30

Same read-out for Cc1ncn2c1nnc1ccc(F)cc12 [Example 11] ? < 5.00
